Catalogue of binders with associated cGMP Assay (EC50, pM) w/BSA
Study System: T1, rat NPRA (rat, UniProt P18910 29-1057)
T1 sequence (looked up): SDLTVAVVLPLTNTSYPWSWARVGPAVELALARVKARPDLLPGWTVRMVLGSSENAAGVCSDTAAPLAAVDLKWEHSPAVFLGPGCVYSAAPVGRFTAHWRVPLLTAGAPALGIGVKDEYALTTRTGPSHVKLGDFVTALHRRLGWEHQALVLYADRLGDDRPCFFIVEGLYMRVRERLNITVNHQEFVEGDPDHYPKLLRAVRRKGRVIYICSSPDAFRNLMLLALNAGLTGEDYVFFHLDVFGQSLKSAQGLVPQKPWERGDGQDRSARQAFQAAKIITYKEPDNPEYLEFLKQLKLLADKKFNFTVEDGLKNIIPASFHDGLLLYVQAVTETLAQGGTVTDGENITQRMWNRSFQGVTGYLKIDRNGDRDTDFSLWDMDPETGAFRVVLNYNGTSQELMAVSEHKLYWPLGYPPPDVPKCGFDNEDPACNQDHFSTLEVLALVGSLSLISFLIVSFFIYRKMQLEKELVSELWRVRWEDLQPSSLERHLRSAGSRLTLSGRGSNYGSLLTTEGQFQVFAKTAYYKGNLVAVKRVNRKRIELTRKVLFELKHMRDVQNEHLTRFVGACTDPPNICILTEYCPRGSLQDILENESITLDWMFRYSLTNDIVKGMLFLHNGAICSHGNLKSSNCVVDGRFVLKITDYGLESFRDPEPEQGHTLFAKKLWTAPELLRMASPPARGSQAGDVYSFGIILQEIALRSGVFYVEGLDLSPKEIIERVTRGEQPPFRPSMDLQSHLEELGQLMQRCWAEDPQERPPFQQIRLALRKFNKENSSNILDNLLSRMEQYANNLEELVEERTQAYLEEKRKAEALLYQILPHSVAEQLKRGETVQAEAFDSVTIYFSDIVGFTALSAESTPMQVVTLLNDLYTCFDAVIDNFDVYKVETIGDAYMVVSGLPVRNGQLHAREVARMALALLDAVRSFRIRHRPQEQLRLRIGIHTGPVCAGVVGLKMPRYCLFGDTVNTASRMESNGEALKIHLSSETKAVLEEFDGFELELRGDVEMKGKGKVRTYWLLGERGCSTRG
Test Summary: cell-based or functional assay
Numbered stars: 1 amine (or outer) side, 2 acyl side, 3 side chain; on linkers, the order of the positions; unused ones are H or OH. Bridge positions count the residues as written; N and C are the ends. Square brackets hold non-standard residues; d marks the D form. * marks the point of attachment. thioacetal = thioacetal linkage between two cysteines (intrachain bond at the bracketed Cys); C20 diacid = O=C(O)CCCCCCCCCCCCCCCCCCC(=O)*; γGlu = O=C(O)[C@H](CCC(=O)[*:2])N[*:1]; 4Pal = N[C@@H](Cc1ccncc1)C(=O)O; βAla = NCCC(=O)O
Please state the figure in pM; there is no need to write the unit.

[
  {
    "Binder": "{C20 diacid}-[γGlu]EKEKEKGS[4Pal]RRSSCFGGRIDRIGHQSGLGCPSFRHGGKSSGAPPPS-NH2 (bridge 15-31 via thioacetal) [Example 67]",
    "Display Unit": "pM",
    "cGMP Assay (EC50, pM) w/BSA": "1.55e+06"
  }
]

Now, please, on to the next binder.
q: Query cGMP Assay (EC50, pM) w/BSA for {C20 diacid}-[γGlu]EKEKEKGEK[βAla]RSSCFGGRIDRIGHYSGLGCPSFRHGPSSGAPPPS-NH2 (bridge 15-31 via thioacetal) [Example 60]
a: 962000

Entry source: patent US20240174727A1
